biological target: UniProtKB P22001; test: Inhibition of human Kv1.3 expressed in CHO cells at -80 mV holding potential by whole cell automated patch clamp method; format: cell-based
Sequence (P22001 whole entry): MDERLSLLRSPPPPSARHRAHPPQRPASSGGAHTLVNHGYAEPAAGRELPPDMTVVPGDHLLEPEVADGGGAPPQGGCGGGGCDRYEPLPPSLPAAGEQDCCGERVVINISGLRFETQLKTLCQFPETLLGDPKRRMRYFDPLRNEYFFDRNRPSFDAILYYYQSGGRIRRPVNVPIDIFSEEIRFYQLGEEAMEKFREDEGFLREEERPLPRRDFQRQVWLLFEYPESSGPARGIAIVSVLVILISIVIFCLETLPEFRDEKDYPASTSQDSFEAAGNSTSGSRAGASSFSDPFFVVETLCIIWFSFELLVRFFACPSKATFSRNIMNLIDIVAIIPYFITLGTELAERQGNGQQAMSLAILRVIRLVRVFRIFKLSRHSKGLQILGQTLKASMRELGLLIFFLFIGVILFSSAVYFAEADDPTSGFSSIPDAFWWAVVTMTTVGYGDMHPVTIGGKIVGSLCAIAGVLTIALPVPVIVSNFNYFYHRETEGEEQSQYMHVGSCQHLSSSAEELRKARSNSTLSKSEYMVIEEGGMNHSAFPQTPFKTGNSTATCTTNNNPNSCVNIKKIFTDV
pIC50: −log10 of the molar value.
Each record here notes measured pIC50.

| COMPOUND | CENSORING_SIGN | pIC50 |
| --- | --- | --- |
| Nc1nc(/C=C/CNC(=O)c2cccnc2)c[nH]1 | < | 4.52 |
| CC(C)(C)OC(=O)N1CCC(C(=O)NC/C=C/c2c[nH]c(N)n2)CC1 | < | 4.52 |
| Cc1[nH]c(C(=O)NC/C=C/c2c[nH]c(N)n2)cc1Cl | = | 4.60 |
| Nc1nc(CCCNC(=O)C2Cc3ccccc3N2)c[nH]1 (stereo unspecified) | < | 4.52 |
| Nc1nc(/C=C/CNC(=O)c2cc3cc(Cl)ccc3[nH]2)c[nH]1 | = | 5.05 |
| Nc1nc(/C=C/CNC(=O)C2CCNCC2)c[nH]1 | < | 4.52 |
| Cc1[nH]c(C(=O)NC/C=C/c2c[nH]c(N)n2)cc1Br | = | 4.60 |
| Nc1ncc(/C=C/CNC(=O)c2ccc[nH]2)[nH]1 | < | 4.52 |
| Nc1nc(/C=C/CNC(=O)c2cc(Cl)c(Cl)[nH]2)c[nH]1 | = | 5.85 |
| Nc1nc(/C=C/CNC(=O)c2cc3ccccc3[nH]2)c[nH]1 | = | 4.68 |
| Nc1nc(CCCNC(=O)c2cc(Br)c(Br)[nH]2)c[nH]1 | < | 4.52 |
| Nc1ncc(/C=C/CNC(=O)c2cc(Br)c(Br)[nH]2)[nH]1 | = | 5.33 |
| Cc1[nH]c(C(=O)NC/C=C/c2c[nH]c(N)n2)c(Br)c1Br | = | 4.77 |
| COc1ccc2[nH]c(C(=O)NC/C=C/c3c[nH]c(N)n3)cc2c1 | < | 4.52 |
| Nc1nc(/C=C/CNC(=O)c2cc3cc(F)ccc3[nH]2)c[nH]1 | = | 4.85 |
| Nc1nc(/C=C/CNC(=O)c2cc(Br)c[nH]2)c[nH]1 | = | 5.60 |
